Parameter IC50: see the listing below.
test system: Cal-62 cells; assay: CellTiter-Glo anti-proliferation, Cal-62; assay type: cell-based, human; settings: Homo sapiens, 72 h; Cal-62 (G12R); read-out: CTG 72h Ic50
Use nM as the unit, but write only the number.

CC(C)C(C(=O)N1C[C@H](O)C[C@H]1C(=O)NCc1ccc2cnn(C)c2c1)n1nnc2c1CCC(CCCN1CCCN(c3nccc(-c4noc([C@@]5(C)CCCc6sc(N)c(C#N)c65)n4)n3)[C@@H](C)C1)C2 (mixture of isomers)    488

-- ask Record request: IC50 value, item CC(C)C(C(=O)N1CC(O)CC1C(=O)NCc1ccc2cnn(C)c2c1)n1nnc2c1CCC(CCCN1CCCN(c3nccc(-c4noc(C5(C)CCCc6sc(N)c(C#N)c65)n4)n3)C(C)C1)C2 (centres unmarked)
-- reply 174

Provenance of the data: paper PMC12616682
